Target: UniProtKB O14684
Sequence (O14684 whole entry): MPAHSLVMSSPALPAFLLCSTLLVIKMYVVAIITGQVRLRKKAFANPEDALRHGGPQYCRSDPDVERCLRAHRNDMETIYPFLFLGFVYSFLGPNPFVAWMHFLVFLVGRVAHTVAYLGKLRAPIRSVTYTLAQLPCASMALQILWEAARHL
pIC50: −log10 of the molar value.
VALUE TYPE: pIC50

Cc1cccc(-c2nc(O)nc(-c3cc(CNC(=O)C(C)(C)C)ccc3Cl)n2)c1 [Example 1-64] :: 8.72

a: CC1(C)CCC(Oc2ccc(-c3nc(O)nc(-c4cc(CNC(=O)C(C)(C)C(F)(F)F)ccc4Cl)n3)cc2)CC1 [Example 1-179]
b: CCOC(=O)NCc1ccc(Cl)c(-c2nc(O)nc(-c3ccc(C(F)(F)F)cc3)n2)c1 [Example 1-38]
Input: Given a and given b , which shows the smaller recorded pIC50? // caller expects the label of the chosen entry
Output: a
(a: 7.80, b: 8.82)

These entries and their values trace back to patent US12398111B2.
